target: Prostate-specific antigen (Homo sapiens) (UniProt P07288)
Sequence (whole entry): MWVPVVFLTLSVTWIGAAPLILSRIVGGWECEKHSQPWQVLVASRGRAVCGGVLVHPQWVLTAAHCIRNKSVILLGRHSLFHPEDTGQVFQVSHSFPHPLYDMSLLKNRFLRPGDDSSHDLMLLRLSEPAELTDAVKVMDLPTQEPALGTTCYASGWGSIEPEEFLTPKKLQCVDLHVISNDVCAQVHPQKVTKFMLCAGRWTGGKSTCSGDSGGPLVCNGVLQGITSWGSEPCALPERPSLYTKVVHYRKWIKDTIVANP
experiment_notes: Stimulation of KLK3 (unknown origin) proteolytic activity using chromogenic chymotrypsin MeO-Suc-Arg-Pro-Tyr-pNA substrate at 20 ug/ml pre-incubated for 30 mins before addition of substrate by […] relative to untreated control
The source made the active and inactive calls. The calls are words filed in the database; no cut-off is given here. Bridge positions count the residues as written; N and C are the ends. Square brackets hold non-standard residues; d marks the D form. Peptide text beside a SMILES is read from it. AllylGly = C=CC[C@H](N)C(=O)O; Aoc = NCCCCCCCC(=O)O
readout: Activity

A selection of reference data follows.
{"columns": ["compound", "Activity"],
 "data": [
  ["CC(C)C[C@@H]1NC(=O)[C@@H]2CSSC[C@H](NC(=O)[C@H](Cc3cnc[nH]3)NC(=O)[C@H](Cc3cnc[nH]3)NC(=O)[C@H](CCC(=O)O)NC1=O)C(=O)N[C@@H](Cc1c[nH]c3ccccc13)C(=O)N[C@@H]([C@@H](C)O)C(=O)N[C@H](C(N)=O)CSSC[C@H](N)C(=O)N[C@@H](C(C)C)C(=O)N[C@@H](C)C(=O)N[C@@H](Cc1ccc(O)cc1)C(=O)N2 (H-CVAYCLEHHCWTC-NH2; disulfide 1-13, 5-10)", "436%"],
  ["CC(C)[C@@H]1NC(=O)[C@@H](N)CSSC[C@@H](C(=O)O)NC(=O)[C@H]([C@@H](C)O)NC(=O)[C@H](Cc2c[nH]c3ccccc23)NC(=O)CCCCCCCNC(=O)[C@H](Cc2ccc(O)cc2)NC(=O)[C@H](C)NC1=O (H-CVAY[Aoc]WTC-OH; disulfide 1-8)", "inactive"],
  ["CC[C@H](C)[C@@H]1NC(=O)[C@@H](NC(=O)[C@H](Cc2ccc(O)cc2)NC(C)=O)C/C=C/C[C@@H](C(=O)N[C@@H](Cc2c[nH]c3ccccc23)C(N)=O)NC(=O)[C@H](Cc2cnc[nH]2)NC(=O)[C@H](Cc2cnc[nH]2)NC(=O)[C@H](CCC(=O)O)NC1=O (Ac-Y[AllylGly]IEHH[AllylGly]W-NH2; staple (E) 2-7)", "inactive"],
  ["CC[C@H](C)[C@@H]1NC(=O)[C@@H]2CSSC[C@H](NC(=O)[C@H](Cc3cnc[nH]3)NC(=O)[C@H](C)NC(=O)[C@H](C)NC1=O)C(=O)N[C@@H](Cc1c[nH]c3ccccc13)C(=O)N[C@@H]([C@@H](C)O)C(=O)N[C@H](C(N)=O)CSSC[C@H](N)C(=O)N[C@@H](C(C)C)C(=O)N[C@@H](C)C(=O)N[C@@H](Cc1ccc(O)cc1)C(=O)N2 (H-CVAYCIAAHCWTC-NH2; disulfide 1-13, 5-10)", "476%"]
]}

Consider the additional compound presented here.
What value of Activity has been recorded for this entry: CC(C)[C@@H]1NC(=O)[C@@H](N)CSSC[C@@H](C(N)=O)NC(=O)[C@H]([C@@H](C)O)NC(=O)[C@H](Cc2c[nH]c3ccccc23)NC(=O)[C@@H]2CSSC[C@H](NC(=O)[C@H](Cc3ccc(O)cc3)NC(=O)[C@H](C)NC1=O)C(=O)N[C@@H](C)C(=O)N[C@@H](CCC(=O)O)C(=O)N[C@@H](Cc1cnc[nH]1)C(=O)N[C@@H](Cc1cnc[nH]1)C(=O)N2 (H-CVAYCAEHHCWTC-NH2; disulfide 1-13, 5-10)
299%

* * *

target: Prostate-specific antigen (Homo sapiens)
experiment_notes: Stimulation of KLK3 (unknown origin) proteolytic activity using chromogenic chymotrypsin MeO-Suc-Arg-Pro-Tyr-pNA substrate at 20 ug/ml pre-incubated for 30 mins before addition of substrate by […] relative to untreated control
Bridge positions count the residues as written; N and C are the ends. Square brackets hold non-standard residues; d marks the D form. Peptide text beside a SMILES is read from it. AllylGly = C=CC[C@H](N)C(=O)O
readout: Activity
Please report the result as a number followed by the unit.

What value of Activity has been recorded for this entry: CC(C)[C@@H]1NC(=O)[C@@H](N)CSSC[C@@H](C(=O)O)NC(=O)[C@H]([C@@H](C)O)NC(=O)[C@H](Cc2c[nH]c3ccccc23)NC(=O)[C@@H]2C/C=C/C[C@H](NC(=O)[C@H](Cc3ccc(O)cc3)NC(=O)[C@H](C)NC1=O)C(=O)N[C@@H](Cc1ccccc1)C(=O)N[C@@H](CCC(=O)O)C(=O)N[C@@H](Cc1cnc[nH]1)C(=O)N[C@@H](Cc1cnc[nH]1)C(=O)N2 (H-CVAY[AllylGly]FEHH[AllylGly]WTC-OH; disulfide 1-13; staple (E) 5-10)
223%

* * *

Assignment: determine reported Activity for the given compounds.
target: Prostate-specific antigen (Homo sapiens)
Sequence (whole entry): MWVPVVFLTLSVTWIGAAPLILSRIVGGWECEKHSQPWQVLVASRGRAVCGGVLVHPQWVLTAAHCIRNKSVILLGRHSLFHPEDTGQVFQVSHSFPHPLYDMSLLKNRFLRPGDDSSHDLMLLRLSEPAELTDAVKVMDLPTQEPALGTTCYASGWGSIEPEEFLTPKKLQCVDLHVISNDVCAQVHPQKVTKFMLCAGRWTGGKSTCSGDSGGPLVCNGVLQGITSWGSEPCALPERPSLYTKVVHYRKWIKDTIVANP
experiment_notes: Stimulation of KLK3 (unknown origin) proteolytic activity using chromogenic chymotrypsin MeO-Suc-Arg-Pro-Tyr-pNA substrate at 20 ug/ml pre-incubated for 30 mins before addition of substrate by […] relative to untreated control
Bridge positions count the residues as written; N and C are the ends. Square brackets hold non-standard residues; d marks the D form. Peptide text beside a SMILES is read from it. AllylGly = C=CC[C@H](N)C(=O)O

What value of Activity has been recorded for this entry: CC[C@H](C)[C@@H]1NC(=O)[C@@H]2CSSC[C@H](NC(=O)[C@H](C)NC(=O)[C@H](C)NC(=O)[C@H](CCC(=O)O)NC1=O)C(=O)N[C@@H](Cc1c[nH]c3ccccc13)C(=O)N[C@@H]([C@@H](C)O)C(=O)N[C@H](C(N)=O)CSSC[C@H](N)C(=O)N[C@@H](C(C)C)C(=O)N[C@@H](C)C(=O)N[C@@H](Cc1ccc(O)cc1)C(=O)N2 (H-CVAYCIEAACWTC-NH2; disulfide 1-13, 5-10)
226%

What do you get for CC[C@H](C)[C@@H]1NC(=O)[C@@H]2C/C=C/C[C@H](NC(=O)[C@H](Cc3cnc[nH]3)NC(=O)[C@H](C)NC(=O)[C@H](C)NC1=O)C(=O)N[C@@H](Cc1c[nH]c3ccccc13)C(=O)N[C@@H]([C@@H](C)O)C(=O)N[C@H](C(=O)O)CSSC[C@H](N)C(=O)N[C@@H](C(C)C)C(=O)N[C@@H](C)C(=O)N[C@@H](Cc1ccc(O)cc1)C(=O)N2 (H-CVAY[AllylGly]IAAH[AllylGly]WTC-OH; disulfide 1-13; staple (E) 5-10) ?
225%

* * *

Assignment: determine reported Activity for the given molecules.
target: Prostate-specific antigen (Homo sapiens) (UniProt P07288)
Sequence (whole entry): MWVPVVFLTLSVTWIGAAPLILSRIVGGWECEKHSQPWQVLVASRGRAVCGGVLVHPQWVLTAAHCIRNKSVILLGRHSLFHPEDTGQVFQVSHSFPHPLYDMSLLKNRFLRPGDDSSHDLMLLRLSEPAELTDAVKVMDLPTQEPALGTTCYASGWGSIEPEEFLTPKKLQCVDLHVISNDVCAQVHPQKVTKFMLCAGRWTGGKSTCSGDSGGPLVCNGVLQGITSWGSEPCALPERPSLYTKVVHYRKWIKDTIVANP
experiment_notes: Stimulation of KLK3 (unknown origin) proteolytic activity using chromogenic chymotrypsin MeO-Suc-Arg-Pro-Tyr-pNA substrate at 20 ug/ml pre-incubated for 30 mins before addition of substrate by […] relative to untreated control
Bridge positions count the residues as written; N and C are the ends. Square brackets hold non-standard residues; d marks the D form. Peptide text beside a SMILES is read from it. AllylGly = C=CC[C@H](N)C(=O)O
Quick reminder: number only, in %, skip the unit.

What value of Activity has been recorded for this entry: CC(C)[C@@H]1NC(=O)[C@@H](N)CSSC[C@@H](C(N)=O)NC(=O)[C@H]([C@@H](C)O)NC(=O)[C@H](Cc2c[nH]c3ccccc23)NC(=O)[C@@H]2CSSC[C@H](NC(=O)[C@H](Cc3ccc(O)cc3)NC(=O)[C@H](C)NC1=O)C(=O)N[C@@H](Cc1ccccc1)C(=O)N[C@@H](CCC(=O)O)C(=O)N[C@@H](Cc1cnc[nH]1)C(=O)N[C@@H](Cc1cnc[nH]1)C(=O)N2 (H-CVAYCFEHHCWTC-NH2; disulfide 1-13, 5-10)
583

What do you get for CC[C@H](C)[C@@H]1NC(=O)[C@@H]2CSSC[C@H](NC(=O)[C@H](Cc3cnc[nH]3)NC(=O)[C@H](Cc3cnc[nH]3)NC(=O)[C@H](CCC(=O)O)NC1=O)C(=O)N[C@@H](Cc1c[nH]c3ccccc13)C(=O)N[C@@H]([C@@H](C)O)C(=O)N[C@H](C(=O)O)CSSC[C@H](N)C(=O)N[C@@H](C(C)C)C(=O)N[C@@H](C)C(=O)N[C@@H](Cc1ccc(O)cc1)C(=O)N2 (H-CVAYCIEHHCWTC-OH; disulfide 1-13, 5-10) ?
625

What do you get for CC[C@H](C)[C@@H]1NC(=O)[C@@H]2CSSC[C@H](NC(=O)[C@H](Cc3cnc[nH]3)NC(=O)[C@H](Cc3cnc[nH]3)NC(=O)[C@H](CCC(=O)O)NC1=O)C(=O)N[C@@H](Cc1c[nH]c3ccccc13)C(=O)N[C@@H](C)C(=O)N[C@H](C(N)=O)CSSC[C@H](N)C(=O)N[C@@H](C)C(=O)N[C@@H](C)C(=O)N[C@@H](Cc1ccc(O)cc1)C(=O)N2 (H-CAAYCIEHHCWAC-NH2; disulfide 1-13, 5-10) ?
127

What do you get for CC(C)[C@@H]1NC(=O)[C@@H](N)CSSC[C@@H](C(N)=O)NC(=O)[C@H]([C@@H](C)O)NC(=O)[C@H](Cc2c[nH]c3ccccc23)NC(=O)[C@@H]2CSSC[C@H](NC(=O)[C@H](Cc3ccc(O)cc3)NC(=O)[C@H](C)NC1=O)C(=O)NCC(=O)N[C@@H](CCC(=O)O)C(=O)N[C@@H](Cc1cnc[nH]1)C(=O)N[C@@H](Cc1cnc[nH]1)C(=O)N2 (H-CVAYCGEHHCWTC-NH2; disulfide 1-13, 5-10) ?
152

What do you get for CC[C@H](C)[C@@H]1NC(=O)[C@@H]2C/C=C/C[C@H](NC(=O)[C@H](Cc3cnc[nH]3)NC(=O)[C@H](Cc3cnc[nH]3)NC(=O)[C@H](CCC(=O)O)NC1=O)C(=O)N[C@@H](Cc1c[nH]c3ccccc13)C(=O)N[C@@H]([C@@H](C)O)C(=O)N[C@H](C(=O)O)CSSC[C@H](N)C(=O)N[C@@H](C(C)C)C(=O)N[C@@H](C)C(=O)N[C@@H](Cc1ccc(O)cc1)C(=O)N2 (H-CVAY[AllylGly]IEHH[AllylGly]WTC-OH; disulfide 1-13; staple (E) 5-10) ?
189
